Molecular target: Cathepsin K (Homo sapiens)
Sequence (P43235 115-329): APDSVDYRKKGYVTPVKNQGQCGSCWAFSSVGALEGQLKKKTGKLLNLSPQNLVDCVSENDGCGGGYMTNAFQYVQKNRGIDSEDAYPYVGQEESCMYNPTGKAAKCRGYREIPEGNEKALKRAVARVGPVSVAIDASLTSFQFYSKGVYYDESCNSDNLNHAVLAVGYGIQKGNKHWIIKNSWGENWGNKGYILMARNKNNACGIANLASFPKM
Assay: Cathepsin K inhibition assay (fluorogenic peptide substrate); selectivity ratio vs cathepsin S
Assay type: biochemical
Settings: ratio of cathepsin K inhibition constant to cathepsin S inhibition constant; Table II
property: Selectivity for Cat. S over Cat. K

                                   compound                targetsystem        testresult
0  COc1ccc(NCCNC(=O)[C@H](Cc2ccc(-c3cccnc3)cc2)NC(=O)c2cccc(C)c2)cc1  Cathepsin K (Homo sapiens)  +++ (+++, >1000)
1  C[C@@H](C(=O)N[C@@H](CC1CCCCC1)C(=O)NCCNc1ccc(F)cc1)c1ccccc1  Cathepsin K (Homo sapiens)     ++ (++, >100)
2  COc1ccc(NCCNC(=O)[C@H](CCC2CCCCC2)NC(=O)c2sc(N)nc2C)cc1  Cathepsin K (Homo sapiens)     ++ (++, >100)
3  COc1ccc(NCCNC(=O)[C@H](CC2CCCCC2)NC(=O)c2cc(C)ccc2Cl)cc1  Cathepsin K (Homo sapiens)  +++ (+++, >1000)
4  O=C(N[C@@H](CC1CCCCC1)C(=O)NCCNc1ccc(OC(F)(F)F)cc1)C1CC(=O)N(Cc2ccco2)C1 (some centres unmarked)  Cathepsin K (Homo sapiens)     ++ (++, >100)
5  O=C(N[C@@H](CC1CCCCC1)C(=O)NCCNc1ccc(F)cc1)c1ccco1  Cathepsin K (Homo sapiens)     ++ (++, >100)
6  O=C(Cc1cccc(F)c1)N[C@@H](CC1CCCCC1)C(=O)NCCNc1ccc(F)cc1  Cathepsin K (Homo sapiens)     ++ (++, >100)

---

Biological target: Cathepsin K (Homo sapiens)
Assay: Cathepsin K inhibition assay (fluorogenic peptide substrate); selectivity ratio vs cathepsin S
Type: biochemical
Conditions: ratio of cathepsin K inhibition constant to cathepsin S inhibition constant; Table II
Description: The optimal substrate for cathepsin K, acetyl-lysine-histidine-proline-lysine-amino carbamoyl coumarin, was identified from screening a combinatorial library of fluorogenic peptide substrates (Harris, J. L., B. J. Backes, et al., Proc Natl Acad Sci USA 2000, 97(14), 7754-9). Kinetic measurements are performed in a total reaction volume of 30 μl in 384-well microtiter plates. […]
property: Selectivity for Cat. S over Cat. K

                                   molecule  testresult
0  COc1ccc2[nH]c(C(=O)N[C@@H](CC3CCCCC3)C(=O)NCCNc3ccc(OC(F)(F)F)cc3)cc2c1  + (+, >10)
1  O=C(N[C@@H](CC1CCCCC1)C(=O)NCCNc1ccc(OC(F)(F)F)cc1)c1ccc(Cn2cnc3ccccc32)cc1  + (+, >10)
2  COc1ccc(NCCNC(=O)C(NC(=O)c2ccc(-c3cccc(C(F)(F)F)c3)o2)c2ccccc2)cc1 (racemic)  + (+, >10)

---

target: Cathepsin K (Homo sapiens, UniProt P43235); experiment: Cathepsin K inhibition assay (fluorogenic peptide substrate); selectivity ratio vs cathepsin S; format: biochemical; settings: ratio of cathepsin K inhibition constant to cathepsin S inhibition constant; Table II
property: Selectivity for Cat. S over Cat. K

>>> print(df.to_string())
                                   compound  testresult
0  COc1ccc(NCCNC(=O)[C@H](Cc2ccccc2)NC(=O)c2cc(C)c(C)cc2C)cc1 [Compound 30]  + (+, >10)
1  COc1ccc(NCCNC(=O)[C@H](CC2CCCCC2)NC(=O)c2cc(OC)cc(OC)c2)cc1 [Compound 180]  + (+, >10)

---

target: Cathepsin K (Homo sapiens, UniProt P43235); assay: Cathepsin K inhibition assay (fluorogenic peptide substrate); selectivity ratio vs cathepsin S; assay type: biochemical; conditions: ratio of cathepsin K inhibition constant to cathepsin S inhibition constant; Table II
property: Selectivity for Cat. S over Cat. K

                                entrysmiles                              targetsystem     testresult
0  COc1ccc(NCCNC(=O)[C@H](CC2CCCCC2)NC(=O)c2cc(C)c(OCc3ccccc3)c(C)c2)cc1  Cathepsin K (Homo sapiens, UniProt P43235)  ++ (++, >100)
1  COc1ccc(NCCNC(=O)[C@H](Cc2ccc(-c3cccc([N+](=O)[O-])c3)cc2)NC(=O)c2cccc(C)c2)cc1  Cathepsin K (Homo sapiens, UniProt P43235)  ++ (++, >100)

---

Biological target: Cathepsin K (Homo sapiens, UniProt P43235)
Sequence (P43235 115-329): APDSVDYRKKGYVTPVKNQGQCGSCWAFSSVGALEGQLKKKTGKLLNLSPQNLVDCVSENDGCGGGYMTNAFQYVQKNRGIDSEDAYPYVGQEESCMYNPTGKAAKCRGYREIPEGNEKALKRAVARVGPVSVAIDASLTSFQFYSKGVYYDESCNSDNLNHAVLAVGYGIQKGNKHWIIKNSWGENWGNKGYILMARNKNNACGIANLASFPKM
Assay: Cathepsin K inhibition assay (fluorogenic peptide substrate); selectivity ratio vs cathepsin S
Format: biochemical
Conditions: ratio of cathepsin K inhibition constant to cathepsin S inhibition constant; Table II
property: Selectivity for Cat. S over Cat. K

                                    molecule        testresult
 0  Cc1cc(C)nc(N(C)c2cccc(C(=O)N[C@@H](CC3CCCCC3)C(=O)NCCNc3ccc(OC(F)(F)F)cc3)c2)n1 [Compound 71]     ++ (++, >100)
 1  O=C(Cc1cc(F)ccc1F)N[C@@H](CC1CCCCC1)C(=O)NCCNc1ccc(F)cc1 [Compound 95]     ++ (++, >100)
 2  C[C@@H](C(=O)N[C@@H](CCC1CCCCC1)C(=O)NCCNc1ccc(OC(F)(F)F)cc1)c1ccccc1 [Compound 13]  +++ (+++, >1000)
 3  CC(=O)N1CCC(C(=O)N[C@@H](CC2CCCCC2)C(=O)NCCNc2ccc(OC(F)(F)F)cc2)CC1 [Compound 14]     ++ (++, >100)
 4  COc1ccc(NCCNC(=O)[C@H](CCc2ccccc2)NC(=O)c2ccc(-c3cccc(C(F)(F)F)c3)o2)cc1 [Compound 1]     ++ (++, >100)
 5  Cc1ccccc1CC(=O)N[C@@H](CC1CCCCC1)C(=O)NCCNc1ccc(F)cc1 [Compound 304]  +++ (+++, >1000)
 6  C[C@@H](C(=O)N[C@@H](CC1CCCCC1)C(=O)NCCNc1ccc(OC(F)(F)F)cc1)c1ccccc1 [Compound 122]  +++ (+++, >1000)
 7  COc1ccc(NCCNC(=O)C(NC(=O)c2cccc(C)c2)c2ccccc2C)cc1 (stereo not drawn) [Compound 220]     ++ (++, >100)
 8  COc1ccc(NCCNC(=O)[C@H](CC2CCCCC2)NC(=O)c2cccc(-c3ccc(Cl)cc3)c2)cc1 [Compound 175]  +++ (+++, >1000)
 9  COc1ccc(NCCNC(=O)[C@H](Cc2ccccc2)NC(=O)c2cccc(Br)c2)cc1 [Compound 78]        + (+, >10)
10  COc1ccc(NCCNC(=O)[C@H](Cc2ccc(-c3ccsc3)cc2)NC(=O)c2cccc(C)c2)cc1 [Compound 275]  +++ (+++, >1000)
11  O=C(N[C@@H](CC1CCCCC1)C(=O)NCCNc1ccc(F)cc1)C1CC1 [Compound 298]     ++ (++, >100)
12  COc1ccc(NCCNC(=O)[C@H](Cc2ccc(OCc3c(Cl)cccc3Cl)cc2)NC(=O)c2cccc(C)c2)cc1 [Compound 248]  +++ (+++, >1000)
13  COc1ccc(NCCNC(=O)[C@H](CC2CCCCC2)NC(=O)c2ccc3ncsc3c2)cc1 [Compound 186]     ++ (++, >100)
14  COc1ccc(NCCNC(=O)[C@H](Cc2cccc(C)c2)NC(=O)c2cccc(C)c2)cc1 [Compound 238]        + (+, >10)

---

biological target: Cathepsin K (Homo sapiens); assay: Cathepsin K inhibition assay (fluorogenic peptide substrate); selectivity ratio vs cathepsin S; format: biochemical; details: ratio of cathepsin K inhibition constant to cathepsin S inhibition constant; Table II
property: Selectivity for Cat. S over Cat. K

                                entrysmiles        testresult
0  Cc1cccc(-c2ccc(C(=O)N[C@@H](CC3CCCCC3)C(=O)NCCNc3ccc(OC(F)(F)F)cc3)o2)c1  +++ (+++, >1000)
1  Cc1cccc(-c2ccc(C(=O)N[C@@H](CC3CCCCC3)C(=O)NCCNc3ccc(OC(F)(F)F)cc3)s2)c1  +++ (+++, >1000)
2  COc1ccc(NCCNC(=O)[C@H](Cc2ccc(Oc3cccc(C)c3)cc2)NC(=O)c2cccc(C)c2)cc1  +++ (+++, >1000)
3  O=C(O)c1ccc(NCCNC(=O)[C@H](CC2CCCCC2)NC(=O)c2ccc(-c3cccc(C(F)(F)F)c3)o2)cc1        + (+, >10)
4  COc1ccc(NCCNC(=O)[C@H](Cc2ccc(-c3ccncc3)cc2)NC(=O)c2cccc(C)c2)cc1     ++ (++, >100)
5  CC[C@@H](C(=O)N[C@@H](CC1CCCCC1)C(=O)NCCNc1ccc(F)cc1)c1ccccc1        + (+, >10)
6  COc1ccc(NCCNC(=O)[C@H](CC2CCCCC2)NC(=O)c2sc(N)nc2C)cc1     ++ (++, >100)

Origin of measurements: patent US7109243B2
